Data credit: patent US20120083501A1

- test.target: BACE1 (Homo sapiens, UniProt P56817)
- Construct: endogenous in cells
- Sequence (P56817 46-501): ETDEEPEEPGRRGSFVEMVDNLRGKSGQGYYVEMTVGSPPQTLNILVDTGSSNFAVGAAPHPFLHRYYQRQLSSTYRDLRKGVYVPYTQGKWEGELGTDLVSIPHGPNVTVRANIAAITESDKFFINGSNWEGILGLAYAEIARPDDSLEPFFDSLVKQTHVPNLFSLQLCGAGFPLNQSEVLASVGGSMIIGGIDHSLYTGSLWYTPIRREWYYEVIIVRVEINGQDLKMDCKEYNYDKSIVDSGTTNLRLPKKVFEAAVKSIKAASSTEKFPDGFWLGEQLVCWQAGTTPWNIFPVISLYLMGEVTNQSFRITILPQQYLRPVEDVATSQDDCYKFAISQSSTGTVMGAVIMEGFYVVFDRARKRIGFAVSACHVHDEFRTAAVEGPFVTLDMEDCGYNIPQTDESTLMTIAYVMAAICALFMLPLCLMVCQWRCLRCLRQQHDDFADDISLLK
- run.description: Cellular BACE1 Inhibition Assay (in vitro cellular Amyloidβ 1-40 production, HTRF immunoassay)
- protocol.conditions: inhibition of Amyloidβ 1-40 production; HEK-293 cells stably transfected with wild type APP695; 48 hours incubation; single assay or mean of multiple assays
pIC50: −log10 of the molar value.
measured.quantity: pIC50

| molecule | pIC50 |
| --- | --- |
| CN1C(=O)C2(N=C1N)c1cc(-c3cc(F)cc(Cl)c3)ccc1OC1CCCC[C@@H]12 (stereo partly drawn) | 7.94 |
| CN1C(=O)[C@]2(N=C1N)c1cc(-c3cccnc3F)ccc1O[C@@]1(C)CCCO[C@@H]12 (relative stereo) | 8.74 |

(1) COc1ccc2c(c1)C1(N=C(N)N(C)C1=O)[C@H]1COCC[C@@H]1C2 (stereo partly drawn)
(2) CN1C(=O)C2(N=C1N)c1cc(-c3cncc(C(F)(F)F)c3)ccc1OC1CC(O)CCC12 (stereo not drawn)
(3) CN1C(=O)C2(N=C1N)c1cc(-c3cc(F)cc(Cl)c3)ccc1OC1CC(O)CCC12 (stereo not drawn)
(4) CN1C(=O)C2(N=C1N)c1cc(-c3cncc(Cl)c3)ccc1C[C@H]1CCOC[C@@H]12 (stereo partly drawn)
(5) CN1C(=O)C2(N=C1N)c1cc(-c3cc(F)cc(Cl)c3)ccc1O[C@H]1CCCC[C@H]12 (relative stereo)
Problem: Reorder: pIC50, max to min. Your reply should list the labels following the order given in the request.
Result: 4, 3, 2, 5, 1
(4: 9.10, 3: 8.70, 2: 8.21, 5: 6.37, 1: 6.10)

(1) COC1CC[C@@H]2[C@@H](C1)Oc1ccc(-c3cc(F)cc(Cl)c3)cc1C21N=C(N)N(C)C1=O (stereo partly drawn)
(2) CN1C(=O)[C@]2(N=C1N)c1cc(-c3cncc(C#N)c3)ccc1O[C@H]1CCCO[C@@]12C
(3) CN1C(=O)C2(N=C1N)c1cc(-c3cccc(Cl)c3)ccc1OC1CC(O)CCC12 (stereo not drawn)
(4) CN1C(=O)C2(N=C1N)c1cc(-c3cc(F)cc(Cl)c3)ccc1OC1CC(OCC3CC3)CCC12 (stereo not drawn)
Problem: Hey, quick one: sort these by pIC50, largest value first please. # answer = labels listed in requested order
Result: 3, 2, 1, 4
(3: 8.82, 2: 8.34, 1: 7.65, 4: 6.26)

(P) CN1C(=O)C2(N=C1N)c1cc(-c3cncc(Cl)c3)ccc1O[C@H]1CCCC[C@H]12 (relative stereo)
(Q) CN1C(=O)[C@]2(N=C1N)c1cc(-c3cccc(C#N)c3)ccc1O[C@]1(C)CCCO[C@H]12 (relative stereo)
Problem: # query: argmin of pIC50 over P and Q State the label of the item chosen.
Result: P
(P: 7.49, Q: 8.37)

(1) CN1C(=O)[C@]2(N=C1N)c1cc(-c3cncc(C#N)c3)ccc1O[C@H]1CCCO[C@@H]12
(2) CN1C(=O)C2(N=C1N)c1cc(-c3cc(F)cc(Cl)c3)ccc1OC1CC(F)(F)CCC12 (stereo not drawn)
Problem: Select one. Lower pIC50: 1 or 2 Answer by stating the label of the chosen item.
Result: 2
